Answer each item with its documented self-cleavage kobs at 160 uM GlcN6P.
B1: glmS ribozyme (parent)
chain: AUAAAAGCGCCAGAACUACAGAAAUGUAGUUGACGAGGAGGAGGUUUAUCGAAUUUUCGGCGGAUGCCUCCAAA

Variants of: B1
Run Description: self-cleavage kobs at 160 uM GlcN6P; higher = faster cleavage; RNA array
Setup Conditions: with glucosamine-6-phosphate
Fewer inactive variants are shown than the library holds.
Give bare numbers, in s⁻¹.

In the examples that follow, each entry is paired with its recorded self-cleavage kobs at 160 uM GlcN6P.
Give self-cleavage kobs at 160 uM GlcN6P for the following variant: G41A U55G
5.67e-05

Give self-cleavage kobs at 160 uM GlcN6P for the following variant: U47G C67G
0.000105

Give self-cleavage kobs at 160 uM GlcN6P for the following variant: A23C A52G U69A
6.42e-05

Give self-cleavage kobs at 160 uM GlcN6P for the following variant: C50G G62U G66C C70A
7.6e-05

Give self-cleavage kobs at 160 uM GlcN6P for the following variant: G32A C67A
5.05e-05

Give self-cleavage kobs at 160 uM GlcN6P for the following variant: G40U A42U
2.53e-05

Hi, could you look up self-cleavage kobs at 160 uM GlcN6P for each item in my list?
1. U31A C71A
2. A15C U47G
3. A52G U55G
4. A39U
5. A14G A52G

0.000449
0.000121
8.73e-05
0.00176
0.000152

Hi, could you look up self-cleavage kobs at 160 uM GlcN6P for each item in my list?
1. G29C A53C
2. U30G U56A
3. U30G C50G C58G G60U C61G
4. U54C G66U
5. U45G A53C C71U

4.1e-05
0.000498
0.000251
0.000108
0.000134

Hi, could you look up self-cleavage kobs at 160 uM GlcN6P for each item in my list?
1. A12U U54C
2. A39U G66C C67A
3. A12U C61A G63C C70U
4. G7U C10G A33U C34U C67G C68A
5. U45G U46C
6. G37A G66A

1: 0.00477; 2: 4.03e-05; 3: 3.45e-05; 4: 6.38e-05; 5: 0.00068; 6: 6.39e-05

Hi, could you look up self-cleavage kobs at 160 uM GlcN6P for each item in my list?
1. A15U U31G C71U
2. U54G U56A G66A
3. G41A C67G C70U

6.51e-05
0.000344
0.000107

Hi, could you look up self-cleavage kobs at 160 uM GlcN6P for each item in my list?
1. A14U A39C
2. C16A
3. G59U C67U C68U U69C
4. A12U U46C
5. C16U U56G
6. U56G C70G
7. A15G G66U
8. C19A G40C

1. 7.69e-05
2. 0.000152
3. 4.87e-05
4. 0.00106
5. 0.000979
6. 6.12e-05
7. 0.000169
8. 0.000173

Hi, could you look up self-cleavage kobs at 160 uM GlcN6P for each item in my list?
1. A52G A53G
2. C16G U47A
3. C16G A39G

1: 0.000131; 2: 0.00027; 3: 0.000353
